Entry source: patent US20250326839A1

# Binding Signal per record follows
Molecular target: T1, human TREM2 (human, UniProt Q9NZC2 19-174, limits assumed)
T1 construct: also called triggering receptor expressed on myeloid cells 2
T1 sequence: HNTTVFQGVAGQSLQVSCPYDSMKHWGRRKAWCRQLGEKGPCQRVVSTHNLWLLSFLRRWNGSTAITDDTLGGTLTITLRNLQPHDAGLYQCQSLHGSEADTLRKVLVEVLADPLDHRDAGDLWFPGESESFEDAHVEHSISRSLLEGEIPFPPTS
Experiment: 2nd screen, 2 nM

# BINDER, ASSAY VALUE
measured = [
    ("V53 (antibody, V domains shown, also called 6E7 variant V53) VH: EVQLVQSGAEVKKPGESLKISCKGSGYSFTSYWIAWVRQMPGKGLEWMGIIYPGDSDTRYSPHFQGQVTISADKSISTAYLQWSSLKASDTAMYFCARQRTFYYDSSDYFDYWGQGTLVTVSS VL: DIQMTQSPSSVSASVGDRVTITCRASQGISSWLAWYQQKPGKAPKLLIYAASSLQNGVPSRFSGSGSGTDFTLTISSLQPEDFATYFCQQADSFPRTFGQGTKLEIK", "0.66 fold over 6E7 parental antibody"),
]

Now for the binder whose Binding Signal we want.
[in] # return recorded Binding Signal for input V62 (antibody, V domains shown, also called 6E7 variant V62) VH: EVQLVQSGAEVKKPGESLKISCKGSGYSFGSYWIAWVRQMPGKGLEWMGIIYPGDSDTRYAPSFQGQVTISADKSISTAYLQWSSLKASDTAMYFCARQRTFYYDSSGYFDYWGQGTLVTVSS VL: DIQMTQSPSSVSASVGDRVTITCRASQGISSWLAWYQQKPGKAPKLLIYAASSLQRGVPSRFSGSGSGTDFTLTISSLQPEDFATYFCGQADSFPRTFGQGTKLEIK
[out] 1.87 fold over 6E7 parental antibody
